# targetEntity: T1, GST-PHD1 W335A of KDM5A (UniProt P29375 291-347, W335A)
# T1 sequence (looked up): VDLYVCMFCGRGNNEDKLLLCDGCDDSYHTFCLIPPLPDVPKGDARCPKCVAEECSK
# assayComment: fluorescence polarisation
Where no end group is shown, it is not given here. fluorescent label = not defined here
quantityMeasured: Kd

**Query** Please give the measured Kd for this binder: ARTKQTARKSTGGKAPRK-{fluorescent label} (peptide, UniProt P68431 2-19, looked up, reading uncertain) [histone H3 tail peptide H3_(1–18), unmethylated Lys4 (H3K4me0)]
**Result** > 100 µM
